- tested.system: xanthine oxidase (Bos taurus)
- Sequence (P80457 2-1332): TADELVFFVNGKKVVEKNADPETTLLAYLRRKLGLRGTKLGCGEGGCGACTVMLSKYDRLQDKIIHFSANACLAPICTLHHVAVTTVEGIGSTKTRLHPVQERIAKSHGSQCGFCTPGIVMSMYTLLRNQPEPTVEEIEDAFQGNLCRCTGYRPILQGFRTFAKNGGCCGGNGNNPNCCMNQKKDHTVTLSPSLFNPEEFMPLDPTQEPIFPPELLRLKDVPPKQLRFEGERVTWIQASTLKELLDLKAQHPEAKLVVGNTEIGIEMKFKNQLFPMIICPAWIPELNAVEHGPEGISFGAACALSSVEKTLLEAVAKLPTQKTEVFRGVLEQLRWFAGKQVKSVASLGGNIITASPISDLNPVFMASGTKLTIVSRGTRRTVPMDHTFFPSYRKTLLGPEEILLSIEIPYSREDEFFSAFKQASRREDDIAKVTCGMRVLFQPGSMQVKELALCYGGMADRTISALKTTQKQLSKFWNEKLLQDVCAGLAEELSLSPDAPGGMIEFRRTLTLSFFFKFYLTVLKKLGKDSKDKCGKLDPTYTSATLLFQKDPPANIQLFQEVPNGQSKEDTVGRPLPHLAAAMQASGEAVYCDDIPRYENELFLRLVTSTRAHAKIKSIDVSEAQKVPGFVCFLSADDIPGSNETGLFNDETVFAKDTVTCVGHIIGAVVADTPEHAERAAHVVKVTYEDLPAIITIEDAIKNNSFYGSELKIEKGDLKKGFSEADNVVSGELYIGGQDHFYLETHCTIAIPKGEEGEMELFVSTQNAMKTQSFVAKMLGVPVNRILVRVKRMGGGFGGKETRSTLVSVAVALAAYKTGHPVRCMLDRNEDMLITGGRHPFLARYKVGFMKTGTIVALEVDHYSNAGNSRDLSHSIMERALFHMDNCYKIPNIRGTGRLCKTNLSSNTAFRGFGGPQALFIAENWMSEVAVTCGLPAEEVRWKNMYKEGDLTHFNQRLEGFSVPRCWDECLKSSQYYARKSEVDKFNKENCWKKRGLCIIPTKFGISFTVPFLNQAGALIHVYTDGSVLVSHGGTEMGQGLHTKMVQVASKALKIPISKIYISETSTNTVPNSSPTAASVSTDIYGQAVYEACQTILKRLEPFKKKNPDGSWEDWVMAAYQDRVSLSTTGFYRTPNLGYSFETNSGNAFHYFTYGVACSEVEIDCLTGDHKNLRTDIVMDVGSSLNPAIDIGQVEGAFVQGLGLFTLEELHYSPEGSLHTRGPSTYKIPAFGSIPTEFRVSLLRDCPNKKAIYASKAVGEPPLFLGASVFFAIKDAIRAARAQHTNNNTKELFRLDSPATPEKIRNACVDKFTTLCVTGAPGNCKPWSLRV
- protocol: Fluorescence-quenching binding to xanthine oxidase
- assay.setup: double-logarithm formula, 25 °C
recorded.endpoint: Affinity n (number of binding sites per enzyme molecule)

compound | tested.system | numeric.value
O=c1c(O)c(-c2ccccc2)oc2cc(O)cc(O)c12 [Galangin] | xanthine oxidase (Bos taurus) | 0.9038

I = O=C(O)[C@H]1O[C@@H](Oc2cc3oc(-c4ccccc4)cc(=O)c3c(O)c2O)[C@H](O)[C@@H](O)[C@@H]1O [Baicalin]
II = O=C1c2c(O)cc(O)cc2O[C@H](c2cc(O)c(O)c(O)c2)[C@H]1O [Dihydromyricetin]
Task item: Endpoint returns the identifier whose Affinity n (number of binding sites per enzyme molecule) is numerically larger, either I or II . Please reply using the label of the selected record.
Reply: I
(I: 1.8782, II: 1.2262)
